meta.source: patent US7033991

Molecular target: T1, PC1, P29120
T1 chain: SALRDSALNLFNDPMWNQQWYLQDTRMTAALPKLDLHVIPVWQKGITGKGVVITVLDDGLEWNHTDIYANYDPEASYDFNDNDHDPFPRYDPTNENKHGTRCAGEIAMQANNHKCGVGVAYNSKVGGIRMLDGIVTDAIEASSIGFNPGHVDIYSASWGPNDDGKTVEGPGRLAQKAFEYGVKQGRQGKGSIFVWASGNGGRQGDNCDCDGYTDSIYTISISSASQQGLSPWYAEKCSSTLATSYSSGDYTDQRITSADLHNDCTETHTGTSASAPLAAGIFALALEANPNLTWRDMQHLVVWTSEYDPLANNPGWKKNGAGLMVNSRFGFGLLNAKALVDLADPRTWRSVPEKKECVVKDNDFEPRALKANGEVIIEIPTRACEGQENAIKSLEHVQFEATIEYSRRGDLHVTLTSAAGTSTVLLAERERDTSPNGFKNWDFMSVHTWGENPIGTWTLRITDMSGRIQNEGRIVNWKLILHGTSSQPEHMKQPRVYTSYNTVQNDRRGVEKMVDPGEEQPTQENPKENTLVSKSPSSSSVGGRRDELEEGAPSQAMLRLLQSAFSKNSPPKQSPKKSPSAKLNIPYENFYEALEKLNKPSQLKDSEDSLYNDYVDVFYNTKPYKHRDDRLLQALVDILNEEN
Settings: modification not given
ENDPOINT_NAME: Ki
Give the figure together with its unit, number first.

[in] Given the entry RRRRRRR [Hepta-L-arginine] , report its measured Ki.
[out] 5.2 µM
